Target: binding partner of C5A (XPA23)
Test: Biacore, K-off
Catalogue of fold difference in affinity vs original readings, one per entry.
Lab book: enter the figure in fold, no units written.

// known answers, use as guide
C5A (XPA23) VH G56Q (antibody, V domains shown) VH: EVQLLESGGGLVQPGGSLRLSCAASGFTFSKYFMFWVRQAPGKGLEWVSVISPSGQMTRYADSVKGRFTISRDNSKNTLYLQMNSLRAEDTAVYYCARVGYGGNSDYWGQGTLVTVSS VL: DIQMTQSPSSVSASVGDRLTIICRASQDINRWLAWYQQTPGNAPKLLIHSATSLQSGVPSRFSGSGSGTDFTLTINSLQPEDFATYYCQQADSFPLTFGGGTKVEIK = 1.31
C5A (XPA23) VH G100H (antibody, V domains shown) VH: EVQLLESGGGLVQPGGSLRLSCAASGFTFSKYFMFWVRQAPGKGLEWVSVISPSGGMTRYADSVKGRFTISRDNSKNTLYLQMNSLRAEDTAVYYCARVHYGGNSDYWGQGTLVTVSS VL: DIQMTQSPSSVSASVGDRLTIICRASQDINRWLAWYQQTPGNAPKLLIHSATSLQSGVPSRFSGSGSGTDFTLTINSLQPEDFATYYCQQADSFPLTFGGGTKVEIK = 0.06

Input line: Look up fold difference in affinity vs original for this binder: C5A (XPA23) VH M57S (antibody, V domains shown) VH: EVQLLESGGGLVQPGGSLRLSCAASGFTFSKYFMFWVRQAPGKGLEWVSVISPSGGSTRYADSVKGRFTISRDNSKNTLYLQMNSLRAEDTAVYYCARVGYGGNSDYWGQGTLVTVSS VL: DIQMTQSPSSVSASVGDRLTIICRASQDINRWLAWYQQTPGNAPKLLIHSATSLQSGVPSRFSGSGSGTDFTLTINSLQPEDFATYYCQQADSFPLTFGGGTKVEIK
Output line: 0.04
